Test: solvent given as SMILES
Conditions: in Cc1ccccc1
Measured emission maximum, listed per entry for reference.

{"molecule": "COc1ccc(C2=[N+]3C(=Nc4c(-c5cc(OC)c(OC)c(OC)c5)c(-c5ccc(C(C)(C)C)cc5)c(-c5ccc(OC)cc5)n4[B-]3(F)F)C(c3cc(OC)c(OC)c(OC)c3)=C2c2ccc(C(C)(C)C)cc2)cc1", "outputUnit": "nm", "emission maximum": 726}
{"molecule": "CN(C)c1ccc(-c2ccc(-c3cc(N4CCCCC4)c(C#N)c4c3-c3ccccc3CC4)s2)cc1", "outputUnit": "nm", "emission maximum": 515}
{"molecule": "O=S(=O)(c1ccccc1)c1ccc(-n2c3ccccc3c3c2c2ccccc2n3-c2ccccc2)cc1", "outputUnit": "nm", "emission maximum": 476}
{"molecule": "CCCCn1c2ccc(C#N)cc2c2cc(C#N)cc(-c3ccc(N(c4ccccc4)c4ccccc4)cc3)c21", "outputUnit": "nm", "emission maximum": 415}
{"molecule": "Cc1nnc(-c2cc(-c3nnc(C)o3)c(-n3c4ccccc4c4ccccc43)cc2-n2c3ccccc3c3ccccc32)o1", "outputUnit": "nm", "emission maximum": 444}
{"molecule": "COc1ccc(N(c2ccc(C=C(c3ccccc3)c3ccccc3)cc2)c2ccc(OC)cc2)cc1", "outputUnit": "nm", "emission maximum": 489}
{"molecule": "CCn1c2ccccc2c2c3nsnc3c3c4ccccc4n(CC)c3c21", "outputUnit": "nm", "emission maximum": 470}
{"molecule": "O=C(c1ccc(-n2c3ccccc3c3ccccc32)cc1)c1ccc(-n2c3ccccc3c3ccccc32)cc1", "outputUnit": "nm", "emission maximum": 438}
